Target: KCNQ2/3 channels (Homo sapiens, UniProt O43525+O43526)
Construct: expressed in transfected cells; host or cells: CHO-K1
Experiment: Fluorescence assay using a voltage-sensitive dye (fluorimetry)
Format: cell-based
Conditions: CHO-K1 cells expressing KCNQ2/3; relative to retigabine = 100%; negative values = antagonistic; read-out: Fluorimetry % efficacy (I/EC50, retigabine = 100%)
Experimental: Pharmacological Experiments Fluorescence Assay Using a Voltage-Sensitive Dye […] The fluorescence measurements are carried out with a BMG Labtech FLUOstar™, BMG Labtech NOVOstar™ or BMG Labtech POLARstar™ instrument (525 nm excitation, 560 nm emission, bottom-read mode). […] The fluorescence intensity of the dye is then measured for 5 min and the fluorescence value F1 of each well is thus determined at a given, constant time. […]
Label key: Y means Emax under 80%; N means Emax of 80% or more.

For this compound, is Emax lower than 80%? O=C(Nc1cccnc1SCCS(=O)(=O)c1cccc(C(F)(F)F)c1)c1ccc(F)cc1O [Example 51]
Y

Now give it for O=C(Cc1ccccc1O)Nc1cccnc1SCCS(=O)(=O)c1cccc(C(F)(F)F)c1 [Example 12] too.
N

Would you kindly repeat that for O=C(CCCc1ccccc1)Nc1cccnc1SCCS(=O)(=O)c1cccc(C(F)(F)F)c1 [Example 25] ?
N

Same for O=C(Nc1cccnc1SCCS(=O)(=O)c1cccc(C(F)(F)F)c1)C1CCCCC1 [Example 19]
Y

For O=C(Cc1cccs1)Nc1cccnc1SCCS(=O)(=O)c1cccc(C(F)(F)F)c1 [Example 3] then?
N

Moving on to O=C(Nc1cccnc1SCCCc1ccc(F)cc1)c1ccc(F)c(F)c1 [Example 65]
N

Continue with O=C(CC1CCCC1)Nc1cccnc1SCCS(=O)(=O)c1cccc(C(F)(F)F)c1 [Example 14]
N

====

molecular target: KCNQ2/3 channels (Homo sapiens, UniProt O43525+O43526); construct: expressed in transfected cells; host or cells: CHO-K1; assay: Fluorescence assay using a voltage-sensitive dye (fluorimetry); type: cell-based; settings: CHO-K1 cells expressing KCNQ2/3; relative to retigabine = 100%; negative values = antagonistic; read-out: Fluorimetry % efficacy (I/EC50, retigabine = 100%)
measured-property: Emax (%)
Numbers only here, please. The scale is %.

Given the entry `O=C(Nc1cccnc1SCCS(=O)(=O)c1cccc(C(F)(F)F)c1)c1ccc(Cl)nc1` , what Emax was observed with KCNQ2/3 channels (Homo sapiens, UniProt O43525+O43526)?
43

What about `O=C(Nc1cccnc1SCCOc1ccc(F)cc1)c1ccc(F)c(F)c1` ?
49

Next: `O=C(CCC1CCCCC1)Nc1cccnc1SCCS(=O)(=O)c1ccccc1`
225

// next record `O=C(Cc1cccs1)Nc1cccnc1SCCS(=O)(=O)c1ccccc1`
125

Proceed to Cc1cc(C)cc(C(C)C(=O)Nc2cccnc2SCCS(=O)(=O)c2ccccc2)c1 (stereo not drawn)
-68

What do you have for `O=C(Nc1cccnc1SCCS(=O)(=O)c1ccccc1)c1ccc(F)c(F)c1` ?
129

# repeat for O=C(CC1CC2CCC1C2)Nc1cccnc1SCCS(=O)(=O)c1cccc(C(F)(F)F)c1 (stereo not drawn)
168

Consider next the molecule `O=C(Nc1cccnc1SCCS(=O)(=O)c1cccc(C(F)(F)F)c1)C(F)(F)C1CCCCC1` in the same way.
79

Also `O=C(Nc1cccnc1SCCS(=O)(=O)c1ccccc1)c1ccccc1` , if possible.
55
